Values compiled from paper PMC2796831.

Protocol Details: Biodistribution
Format: in vivo, mice
Conditions Used: athymic nude, mouse, kidney, iv, 10 nmol
Property Name: tissue uptake dose at 0.5 h (%ID)

[[record]]
compound = "CCN1C(=CC=CC=CC2=[N+](CCCCCC(=O)NCCN3C(=O)CC(SC[C@@H](NC(=O)[C@@H](CCCNC(=N)N)NC(=O)[C@@H](CCCNC(=N)N)NC(=O)[C@@H](CCCNC(=N)N)NC(=O)[C@@H](CCCNC(=N)N)NC(=O)[C@@H](CCCNC(=N)N)NC(=O)[C@@H](CCCNC(=N)N)NC(=O)[C@@H](CCCNC(=N)N)NC(=O)[C@@H](CCCNC(=N)N)NC(=O)[C@H](N)CCCNC(=N)N)C(N)=O)C3=O)c3ccc(S(=O)(=O)[O-])cc3C2(C)C)C(C)(C)c2cc(S(=O)(=O)O)ccc21 (stereo partly shown)"
property_name = "tissue uptake dose at 0.5 h"
unit_label = "%ID"
quantitative_readout = 8

